Parameter: Product observed RNase T2 + TAP: pGp* (normal orientation of the cap). Scope: all listed entries.
Biological target: SP6 polymerase (Enterobacteria phage SP6)
Construct: purchased Promega
Sequence (P06221 whole entry): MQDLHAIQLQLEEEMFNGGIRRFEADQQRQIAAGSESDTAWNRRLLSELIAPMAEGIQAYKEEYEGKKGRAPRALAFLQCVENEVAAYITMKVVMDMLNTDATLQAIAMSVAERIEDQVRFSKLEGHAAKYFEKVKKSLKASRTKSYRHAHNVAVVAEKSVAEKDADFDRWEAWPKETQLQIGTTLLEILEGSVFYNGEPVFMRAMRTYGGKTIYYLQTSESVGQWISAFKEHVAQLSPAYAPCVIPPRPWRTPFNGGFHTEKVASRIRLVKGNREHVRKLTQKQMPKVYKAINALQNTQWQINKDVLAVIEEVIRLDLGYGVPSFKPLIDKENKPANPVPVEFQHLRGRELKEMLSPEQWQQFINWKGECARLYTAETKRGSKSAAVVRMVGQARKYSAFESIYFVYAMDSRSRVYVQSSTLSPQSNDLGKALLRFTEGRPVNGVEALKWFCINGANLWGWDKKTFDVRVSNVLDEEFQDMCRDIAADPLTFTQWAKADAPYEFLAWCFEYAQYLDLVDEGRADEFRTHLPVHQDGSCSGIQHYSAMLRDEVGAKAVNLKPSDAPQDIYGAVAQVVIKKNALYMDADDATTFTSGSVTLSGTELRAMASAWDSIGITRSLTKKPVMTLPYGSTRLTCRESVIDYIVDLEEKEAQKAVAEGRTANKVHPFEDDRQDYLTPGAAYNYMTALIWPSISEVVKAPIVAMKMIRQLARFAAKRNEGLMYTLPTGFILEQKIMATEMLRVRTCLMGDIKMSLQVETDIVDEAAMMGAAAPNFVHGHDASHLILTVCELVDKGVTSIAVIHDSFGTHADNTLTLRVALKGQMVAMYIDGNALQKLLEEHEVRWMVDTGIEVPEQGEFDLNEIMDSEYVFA
Test: Analysis of cap orientation in in vitro-synthesized RNA transcripts by RNase T2 + TAP digestion and anion exchange HPLC
Assay type: biochemical, bacteriophage SP6
Settings: short RNA (43 bases) from Ncol-digested pSP-luc+, [α-32P]ATP; share of 5′ end labeled digestion product
The figure you give is taken to be in %; do not add the unit.

Some compounds with recorded Product observed RNase T2 + TAP: pGp* (normal orientation of the cap):
CO[C@H]1[C@@H](O)[C@H](n2c[n+](C)c3c(=O)[nH]c(N)nc32)O[C@@H]1COP(=O)(O)OP(=O)(O)OP(=O)(O)OC[C@H]1O[C@@H](n2cnc3c(=O)[nH]c(N)nc32)[C@H](O)[C@@H]1O [m2^7,O3′GpppG] = 100
C[n+]1cn([C@@H]2O[C@H](COP(=O)(O)OP(=O)(O)OP(=O)(O)OC[C@H]3O[C@@H](n4cnc5c(=O)[nH]c(N)nc54)[C@H](O)[C@@H]3O)C[C@H]2O)c2nc(N)[nH]c(=O)c21 [m^73′dGpppG] = 100
Nc1nc2c(ncn2[C@@H]2O[C@H](COP(=O)(O)OP(=O)(O)OP(=O)(O)OC[C@H]3O[C@@H](n4cnc5c(=O)[nH]c(N)nc54)[C@H](O)[C@@H]3O)[C@@H](O)[C@H]2O)c(=O)[nH]1 [GpppG, reference compound] = 100

Now look at this entry.
Qu. Answer with Product observed RNase T2 + TAP: pGp* (normal orientation of the cap) of Cn1c[n+](C2OC(COP(=O)(O)OP(=O)(O)OP(=O)(O)OCC3OC(n4cnc5c(=O)[nH]c(N)nc54)C(O)C3O)C(O)C2O)c2nc(N)nc([O-])c21 (stereo not shown) [m^7GpppG, m^7G(5′)ppp(5′)G, reference compound] measured for SP6 polymerase (Enterobacteria phage SP6).
Ans. 67

Provenance of the data: patent US7074596B2
